target: human β3 adrenergic receptor (Homo sapiens); construct: expressed in transfected cells; host or cells: Chinese hamster ovary (CHO) cells, stably transfected; assay: Beta-3 agonist in vitro functional assay: cAMP production (LANCE TR-FRET) in CHO cells stably transfected with the cloned β3 receptor; assay type: cell-based; conditions: Table 10; Beta-3 agonist in vitro functional assay; read-out: Human β3 agonist functional activity
Sequence (P13945 whole entry): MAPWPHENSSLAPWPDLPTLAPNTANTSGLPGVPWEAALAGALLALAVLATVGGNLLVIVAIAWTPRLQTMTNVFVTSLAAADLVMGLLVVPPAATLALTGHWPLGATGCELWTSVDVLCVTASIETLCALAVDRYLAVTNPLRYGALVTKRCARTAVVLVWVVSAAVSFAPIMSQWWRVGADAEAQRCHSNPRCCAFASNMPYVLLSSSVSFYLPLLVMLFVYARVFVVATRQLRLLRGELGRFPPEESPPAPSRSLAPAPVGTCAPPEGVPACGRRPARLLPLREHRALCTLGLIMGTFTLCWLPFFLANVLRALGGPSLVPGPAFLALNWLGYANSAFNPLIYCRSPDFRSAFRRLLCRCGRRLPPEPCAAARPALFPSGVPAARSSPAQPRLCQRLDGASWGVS
pEC50: −log10 of the molar value.
measured-quantity: pEC50

[[record]]
compound = "CC(C(=O)N1CCCC(C(F)(F)F)C1)N1CCN(C(=O)c2ccc(C[C@@H]3CC[C@H]([C@H](O)c4ccccc4)N3)cc2)CC1 (stereo partly drawn)"
assayed_system = "human β3 adrenergic receptor (Homo sapiens)"
measured_quantity = "pEC50"
value_reported = "8.00 to 9.00"

[[record]]
compound = "CC(C(=O)N(C)C)N1CCN(C(=O)c2ccc(C[C@@H]3CC[C@H]([C@H](O)c4ccccc4)N3)cc2)CC1 (stereo partly drawn)"
assayed_system = "human β3 adrenergic receptor (Homo sapiens)"
measured_quantity = "pEC50"
value_reported = "8.00 to 9.00"

[[record]]
compound = "CC(C(=O)NC1CCN(C)C1=O)N1CCN(C(=O)c2ccc(C[C@@H]3CC[C@H]([C@H](O)c4ccccc4)N3)cc2)CC1 (stereo partly drawn)"
assayed_system = "human β3 adrenergic receptor (Homo sapiens)"
measured_quantity = "pEC50"
value_reported = "> 9.00"

[[record]]
compound = "CC(C(=O)N1CCC1)N1CCN(C(=O)c2ccc(C[C@@H]3CC[C@H]([C@H](O)c4ccccc4)N3)cc2)CC1 (stereo partly drawn)"
assayed_system = "human β3 adrenergic receptor (Homo sapiens)"
measured_quantity = "pEC50"
value_reported = "8.00 to 9.00"

[[record]]
compound = "CC(C(=O)NC1CCOCC1)N1CCN(C(=O)c2ccc(C[C@@H]3CC[C@H]([C@H](O)c4ccccc4)N3)cc2)CC1 (stereo partly drawn)"
assayed_system = "human β3 adrenergic receptor (Homo sapiens)"
measured_quantity = "pEC50"
value_reported = "6.00 to 7.00"

[[record]]
compound = "CC(C)NC(=O)C(C)N1CCN(C(=O)c2ccc(C[C@@H]3CC[C@H]([C@H](O)c4ccccc4)N3)cc2)CC1 (stereo partly drawn)"
assayed_system = "human β3 adrenergic receptor (Homo sapiens)"
measured_quantity = "pEC50"
value_reported = "6.00 to 7.00"

